Source listed as ChEMBL document CHEMBL1201862.

compounds and their reported GI50
# System: UACC-257
# protocol_summary: NCI tumour cell line growth inhibition, 48 h
Activity calls are given as the source filed them. Cut-off read from the data, not from the text of the source: active = GI50 up to about 1.1 µM and inactive = higher.

Nc1ccccc1S(=O)(=O)c1ccccc1    > 100 µM (inactive)

Quote GI50 reported for `Cc1nn(C)c2c1C(=O)N(C)CC(=O)N2C` please.
> 100 µM (inactive)

Quote GI50 reported for COc1nc2c(c(=O)n1C)NC(C(O)C(O)CO)C=N2 (stereo not given) please.
> 10 µM (inactive)

Quote GI50 reported for `COc1cc(/C=C(\NC(=O)c2ccccc2)c2nc3ccc4c(c3[nH]2)C(=O)c2ccccc2C4=O)cc(OC)c1OC` please.
> 100 µM (inactive)

Quote GI50 reported for `Cc1c(Cl)c(=O)oc2cc(OCC(=O)c3ccccc3)ccc12` please.
> 100 µM (inactive)

Quote GI50 reported for `CCOC(=O)c1cc(-c2ccc([N+](=O)[O-])cc2)c([N+](=O)[O-])[nH]1` please.
1.6 µM (inactive)

Quote GI50 reported for `CC(C(=O)NCCNC(=O)CCCC(=O)N(C)O)C(=O)NCCNC(=O)CCCC(=O)N(C)O` please.
> 100 µM (inactive)

Quote GI50 reported for COc1ccc(C2c3cc4c(cc3OC(NCCO)C2C)OCO4)cc1 (stereo not given) please.
21 µM (inactive)

Quote GI50 reported for COc1ccc2ccccc2c1C1OC(=O)c2ccccc21 (stereo not given) please.
91 µM (inactive)

Quote GI50 reported for CCC1OC2C(CC=C(C)C)=C3OC(C)(O)C(C)(CC)C(OC(C)=O)C3=C3OC(=O)C=C1C32 (stereo not given) please.
22.2 µM (inactive)
